Source: the supplement of paper PMC10266784

B1: library; numbered along this chain (parent)
chain: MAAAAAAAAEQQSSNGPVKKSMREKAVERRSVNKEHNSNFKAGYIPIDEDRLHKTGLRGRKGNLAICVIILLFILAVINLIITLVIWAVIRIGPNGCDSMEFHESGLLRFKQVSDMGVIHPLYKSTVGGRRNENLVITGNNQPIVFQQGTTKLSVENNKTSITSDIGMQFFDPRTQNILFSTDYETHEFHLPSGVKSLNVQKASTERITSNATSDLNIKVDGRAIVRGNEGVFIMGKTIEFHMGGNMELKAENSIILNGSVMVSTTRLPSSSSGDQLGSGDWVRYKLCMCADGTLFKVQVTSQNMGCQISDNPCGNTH

variants of: B1; assay: SGCB cell-surface expression functional score (HA stain, bin4 vs bin1, normalised to synonymous) (log10 ratio); higher = more cell-surface SGCB (functional)
Consider the reported SGCB cell-surface expression functional score (log10) of an entry and match it to a band in group 1 = under -0.3, group 2 = from -0.3 up to 0.2, group 3 = 0.2 and over

{"MUTANT NAME": "L257M", "ASSIGNED CLASS": "group 2"}
{"MUTANT NAME": "N15F", "ASSIGNED CLASS": "group 3"}
{"MUTANT NAME": "I239N", "ASSIGNED CLASS": "group 1"}
{"MUTANT NAME": "I162L", "ASSIGNED CLASS": "group 1"}
{"MUTANT NAME": "V261Q", "ASSIGNED CLASS": "group 1"}
{"MUTANT NAME": "L107F", "ASSIGNED CLASS": "group 2"}
{"MUTANT NAME": "S279L", "ASSIGNED CLASS": "group 3"}
{"MUTANT NAME": "S31Y", "ASSIGNED CLASS": "group 2"}
{"MUTANT NAME": "M1D", "ASSIGNED CLASS": "group 3"}
{"MUTANT NAME": "K34C", "ASSIGNED CLASS": "group 3"}
